Target: Kappa-type opioid receptor (Homo sapiens)
Experiment: Agonist activity at kappa opioid receptor (unknown origin) expressed in HEK293-A cells assessed as inhibition of forskolin-stimulated cAMP accumulation incubated for 30 mins by competition PKA binding assay
Type: functional, cell-based
Details: read-out: EC50

smiles.code	EC50 (µM)
N=C(N)NCCC[C@H](NC(=O)[C@H](CCC(N)=O)NC(=O)[C@@H]1CCCN1C(=O)[C@@H](CS)NC(=O)[C@H](Cc1ccccc1)NC(=O)CNC(=O)[C@@H](CS)NC(=O)[C@@H](N)Cc1ccc(O)cc1)C(=O)N[C@@H](Cc1ccccc1)C(N)=O	2.3
N=C(N)NCCC[C@H](NC(=O)[C@H](CCC(N)=O)NC(=O)[C@@H]1CCCN1C(=O)[C@H](CS)NC(=O)[C@H](Cc1ccccc1)NC(=O)CNC(=O)[C@H](CS)NC(=O)[C@@H](N)Cc1ccc(O)cc1)C(=O)N[C@@H](Cc1ccccc1)C(N)=O	0.184
N=C(N)NCCC[C@H](NC(=O)[C@H](CCC(N)=O)NC(=O)[C@@H]1CCCN1C(=O)[C@H](CS)NC(=O)[C@H](Cc1ccccc1)NC(=O)CNC(=O)[C@@H](CS)NC(=O)[C@@H](N)Cc1ccc(O)cc1)C(=O)N[C@@H](Cc1ccccc1)C(N)=O	0.581
N=C(N)NCCC[C@H](NC(=O)[C@H](CCC(N)=O)NC(=O)[C@@H]1CCCN1C(=O)[C@H]1CSSC[C@@H](NC(=O)[C@@H](N)Cc2ccc(O)cc2)C(=O)NCC(=O)N[C@@H](Cc2ccccc2)C(=O)N1)C(=O)N[C@@H](Cc1ccccc1)C(N)=O	2.46
